Values compiled from patent US20210253718A1.

Biological target: T1, FZD2 CRD (Homo sapiens, UniProt Q14332)
T1 construct: D35-P161; GPI anchor signal (C); expressed in transfected cells; host or cells: CHO cells, lentiviral pLenti-puro
Test: Flow cytometry of anti-FZD5 Fab binding to CHO cells overexpressing Frizzled CRD
For each of the molecules below, state its Median fluorescence, Frizzled CRD overexpressed on CHO cells: FZD2.

Kindly note the recorded Median fluorescence, Frizzled CRD overexpressed on CHO cells: FZD2 for Fab-2932: anti-FZD5 Fab with antibody variable region Fv-2932; CDR SEQ ID NOs: 35, 36, 71, 108, 147, 153 (antibody, V domains shown) VH: EVQLVESGGGLVQPGGSLRLSCAASGFNISYSYMHWVRQAPGKGLEWVASIYSSYSSTSYADSVKGRFTISADTSKNTAYLQMNSLRAEDTAVYYCARGALDYWGQGTLVTVSS VL: DIQMTQSPSSLSASVGDRVTITCRASQSVSSAVAWYQQKPGKAPKLLIYSASSLYSGVPSRFSGSRSGTDFTLTISSLQPEDFATYYCQQWYGSFALITFGQGTKVEIK , which is 9.39

Kindly note the recorded Median fluorescence, Frizzled CRD overexpressed on CHO cells: FZD2 for Fab-2907: anti-FZD5 Fab with antibody variable region Fv-2907; CDR SEQ ID NOs: 35, 36, 46, 85, 122, 159 (antibody, V domains shown) VH: EVQLVESGGGLVQPGGSLRLSCAASGFNIYSSYMHWVRQAPGKGLEWVASISSYSGSTYYADSVKGRFTISADTSKNTAYLQMNSLRAEDTAVYYCARSSWGAYIVSYGFDYWGQGTLVTVSS VL: DIQMTQSPSSLSASVGDRVTITCRASQSVSSAVAWYQQKPGKAPKLLIYSASSLYSGVPSRFSGSRSGTDFTLTISSLQPEDFATYYCQQVGYWWGLITFGQGTKVEIK , which is 4.07

Kindly note the recorded Median fluorescence, Frizzled CRD overexpressed on CHO cells: FZD2 for Fab-2928: anti-FZD5 Fab with antibody variable region Fv-2928; CDR SEQ ID NOs: 35, 36, 67, 105, 143, 175 (antibody, V domains shown) VH: EVQLVESGGGLVQPGGSLRLSCAASGFNISYSSIHWVRQAPGKGLEWVASIYPSYSSTYYADSVKGRFTISADTSKNTAYLQMNSLRAEDTAVYYCARYYAMDYWGQGTLVTVSS VL: DIQMTQSPSSLSASVGDRVTITCRASQSVSSAVAWYQQKPGKAPKLLIYSASSLYSGVPSRFSGSRSGTDFTLTISSLQPEDFATYYCQQAFYYPITFGQGTKVEIK , which is 14.59

Kindly note the recorded Median fluorescence, Frizzled CRD overexpressed on CHO cells: FZD2 for Fab-2901: anti-FZD5 Fab with antibody variable region Fv-2901; CDR SEQ ID NOs: 35, 36, 40, 79, 116, 154 (antibody, V domains shown) VH: EVQLVESGGGLVQPGGSLRLSCAASGFNISYSYMHWVRQAPGKGLEWVASIYSYSSYTYYADSVKGRFTISADTSKNTAYLQMNSLRAEDTAVYYCARSWYYWSPSSGMDYWGQGTLVTVSS VL: DIQMTQSPSSLSASVGDRVTITCRASQSVSSAVAWYQQKPGKAPKLLIYSASSLYSGVPSRFSGSRSGTDFTLTISSLQPEDFATYYCQQGGFLITFGQGTKVEIK , which is 13.95

Kindly note the recorded Median fluorescence, Frizzled CRD overexpressed on CHO cells: FZD2 for Fab-2905: anti-FZD5 Fab with antibody variable region Fv-2905; CDR SEQ ID NOs: 35, 36, 44, 83, 120, 157 (antibody, V domains shown) VH: EVQLVESGGGLVQPGGSLRLSCAASGFNLSYYYMHWVRQAPGKGLEWVASIYSSYSYTSYADSVKGRFTISADTSKNTAYLQMNSLRAEDTAVYYCARSGYALDYWGQGTLVTVSS VL: DIQMTQSPSSLSASVGDRVTITCRASQSVSSAVAWYQQKPGKAPKLLIYSASSLYSGVPSRFSGSRSGTDFTLTISSLQPEDFATYYCQQSSWYYGYPFTFGQGTKVEIK , which is 5.09

Kindly note the recorded Median fluorescence, Frizzled CRD overexpressed on CHO cells: FZD2 for Fab-2933: anti-FZD5 Fab with antibody variable region Fv-2933; CDR SEQ ID NOs: 35, 36, 72, 109, 148, 177 (antibody, V domains shown) VH: EVQLVESGGGLVQPGGSLRLSCAASGFNLYSSYMHWVRQAPGKGLEWVASIYSSYGYTSYADSVKGRFTISADTSKNTAYLQMNSLRAEDTAVYYCARTVRGSKKPYFSGWAMDYWGQGTLVTVSS VL: DIQMTQSPSSLSASVGDRVTITCRASQSVSSAVAWYQQKPGKAPKLLIYSASSLYSGVPSRFSGSRSGTDFTLTISSLQPEDFATYYCQQFWWYASWLFTFGQGTKVEIK , which is 9.82

Kindly note the recorded Median fluorescence, Frizzled CRD overexpressed on CHO cells: FZD2 for Fab-2930: anti-FZD5 Fab with antibody variable region Fv-2930; CDR SEQ ID NOs: 35, 36, 69, 107, 145, 153 (antibody, V domains shown) VH: EVQLVESGGGLVQPGGSLRLSCAASGFNLSYYYIHWVRQAPGKGLEWVASIYPYSGSTSYADSVKGRFTISADTSKNTAYLQMNSLRAEDTAVYYCARGALDYWGQGTLVTVSS VL: DIQMTQSPSSLSASVGDRVTITCRASQSVSSAVAWYQQKPGKAPKLLIYSASSLYSGVPSRFSGSRSGTDFTLTISSLQPEDFATYYCQQWYGPYLITFGQGTKVEIK , which is 11.44

Kindly note the recorded Median fluorescence, Frizzled CRD overexpressed on CHO cells: FZD2 for Fab-2934: anti-FZD5 Fab with antibody variable region Fv-2934; CDR SEQ ID NOs: 35, 36, 73, 110, 149, 155 (antibody, V domains shown) VH: EVQLVESGGGLVQPGGSLRLSCAASGFNISYSYMHWVRQAPGKGLEWVASIYSSSGSTSYADSVKGRFTISADTSKNTAYLQMNSLRAEDTAVYYCARGAIDYWGQGTLVTVSS VL: DIQMTQSPSSLSASVGDRVTITCRASQSVSSAVAWYQQKPGKAPKLLIYSASSLYSGVPSRFSGSRSGTDFTLTISSLQPEDFATYYCQQWYHYGLITFGQGTKVEIK , which is 6.61
